System: LOX IMVI melanoma
testDetails: NCI tumour cell line growth inhibition, 48 h
TGI by entry:

N#C/C=c1/c2ccccc2n2nc3ccccc3c12 = > 100 µM
O=C1OC(c2ccccc2)(c2ccccc2)c2ccc3ccc(F)cc3c21 = > 100 µM
COc1cc2c3c(n(CCCCNC(=O)OC(C)(C)C)c(=O)c2cc1OC)-c1cc2c(cc1C3=O)OCO2 = > 100 µM
O=C(OCC1CCCN2CCCCC12)c1cccnc1 (stereo not drawn) = > 100 µM
O=C(O)C(Br)C(Br)C(=O)O (stereo not drawn) = > 100 µM

Task: What value of measured TGI is listed for CC(C)(C)c1cc(C(=O)C2Cc3ccccc3C(=O)O2)cc(C(C)(C)C)c1O (stereo not drawn) ?
Output: 26.5 µM

Task: Give its TGI value. Item: CCOC(=O)CCC(NC(=O)c1ccc(Nc2nc3cc(C(F)(F)F)ccc3nc2C(=O)OCC)cc1)C(=O)OCC (stereo not drawn)
Output: 36.2 µM

Task: Fill in the blank: the reported TGI of NCCOCn1cc(Cc2cccc(OCc3ccccc3)c2)c(=O)[nH]c1=O is ____.
Output: > 100 µM

Task: Give its TGI value. Item: COC(=O)[C@H]1[C@@H](O)[C@@]2(O)c3c(OC)cc(OC)cc3O[C@@]2(c2ccc3c(c2)OCO3)[C@@H]1c1ccccc1
Output: 0.014 µM

Task: // query TGI value for entry Oc1cc(Cl)cc2cc(Cl)cnc12
Output: 13.1 µM

Task: Suppose we examine the molecule O=C(/C=C/c1ccc2c(c1)OCO2)NCCc1ccco1 ; what TGI value has been reported?
Output: > 100 µM

Task: Requested read-out: TGI. Entry: CCC[CH2][Sn]([CH2]CCC)([CH2]CCC)[O]C(=O)C(OC(C)=O)c1ccccc1 (stereo not drawn)
Output: 0.23 µM

Task: Which measured TGI value corresponds to C=C1C(=O)[C@]23C[C@H]1C[C@@H](O)[C@H]2[C@]1(COC3=O)[C@@H](OC(C)=O)CC[C@@](C)(COC(C)=O)[C@H]1C=O ?
Output: > 50 µM

====

Test system: UACC-62 melanoma
testDetails: NCI tumour cell line growth inhibition, 48 h
Where a SMILES comes first, the peptide text is derived from it. The star is where a group is joined. Boc = CC(C)(C)OC(=O)*
# TGI per entry

Worked set:
CN(C)C[C@H]1CCn2c(c(C3=C(c4cn(C)c5ccccc45)C(=O)NC3=O)c3ccccc32)C1 = 7.98 µM
O=C1NC(=O)C(=Cc2c3ccccc3cc3ccccc23)C(=O)N1 = > 100 µM
Cc1c(OCCCOc2ccc3c(=O)cc(-c4ccccc4)oc3c2C)ccc2c(=O)cc(-c3ccccc3)oc12 = > 100 µM
CN(C)C(=S)/N=c1\ssc(=S)n1Cc1cccs1 = > 56.7 µM
CCOC(=O)CCC(NC(=O)c1ccc(Nc2nc3cc(C(F)(F)F)ccc3nc2C(=O)OCC)cc1)C(=O)OCC (configuration not stated) = 41.7 µM

Task: So what's the measured TGI for this one? c1ccc2cc(Cn3cc[n+](Cc4ccc5ccccc5c4)c3)ccc2c1
Output: 1.98 µM

Task: So what does the record say about TGI for CSc1c2c(C)n[nH]c2nn1-c1ccccc1 ?
Output: > 100 µM

Task: Any idea what its TGI is? The molecule is Nc1ncnc2c1ncn2CCCC(c1ccccc1)P(=O)(O)O (configuration not stated)
Output: > 100 µM

Task: Value lookup for TGI; key = CCOC(=O)C1(C#N)C2(C#N)C(N)=NC(ON=C(C)C)(ON=C(C)C)C12C#N (configuration not stated)
Output: > 100 µM

Task: Data request, read-out TGI, for CSCCC(NC(=O)C(CC(C)C)NC(=O)C1CCCN1C(=O)C(Cc1ccccc1)NC(=O)C(Cc1ccccc1)NC(=O)C(CCC(=O)O)NC(=O)OC(C)(C)C)C(N)=O (configuration not stated) (Boc-EFFPLM-NH2; configuration not given here)
Output: > 100 µM

Task: Recorded TGI for O=C(/C=C/c1ccc2c(c1)OCO2)NCCc1ccco1 , please?
Output: > 100 µM

Task: Which measured TGI value corresponds to COC(=O)[C@H]1[C@@H](O)[C@@]2(O)c3c(OC)cc(OC)cc3O[C@@]2(c2ccc3c(c2)OCO3)[C@@H]1c1ccccc1 ?
Output: > 50 µM

====

Quick reference: TGI of the listed items.
Test system: 786-0 renal
testDetails: NCI tumour cell line growth inhibition, 48 h

Example entries and their recorded answers appear below.
COc1cc2c3c(n(CCCCNC(=O)OC(C)(C)C)c(=O)c2cc1OC)-c1cc2c(cc1C3=O)OCO2 = > 100 µM
COC(=O)[C@@H]1[C@H](O)CCC2=C(CC(=O)c3ccoc3)[C@H](C)CC[C@]21C = > 50 µM
COc1cc(O)c(C(=O)CC(C)=O)c(OC)c1 = > 100 µM

--- query ---
Task: Consider the compound shown here: CCNc1cc2oc(=O)cc(C(F)(F)F)c2cc1C What is its recorded TGI?
Output: > 100 µM

====

System: A549 NSCLC
testDetails: NCI tumour cell line growth inhibition, 48 h
property: TGI (µM)
Write down the numeric answer in µM and omit the unit.

Below, each entry is followed by its recorded TGI result.
COc1cccc(OC(=O)c2ccc(C(F)(F)F)nc2Nc2c(C)cccc2Cl)c1 = 58.6
C/C(=N/NC(=S)Nc1cccc(Cl)c1)c1ccccn1 = 10.1
CCC[CH2][Sn]([CH2]CCC)([CH2]CCC)[O]C(=O)C(OC(C)=O)c1ccccc1 (stereo not drawn) = 0.309

Continue with the molecule presented below.
Task: Given COc1cc(OC)cc(-c2nc3sccn3c2/C=N/N=C(N)N)c1 , state its recorded TGI.
Output: 19.8

====

Tested on: SN12C renal
testDetails: NCI tumour cell line growth inhibition, 48 h
property: TGI

Here's what some known entries look like.
C=CCOC(=O)c1c(C)n([O-])c2cc(Cl)c(Cl)cc2[n+]1=O = 54.7 µM
COc1cccc(OC(=O)c2ccc(C(F)(F)F)nc2Nc2c(C)cccc2Cl)c1 = 64.3 µM
CCn1c(-c2c(Cl)cc(O)cc2Cl)cc2c(Cl)cc(O)cc21 = > 100 µM
N=S(=O)(c1ccccc1)c1ccccc1 = > 100 µM
CN(C)c1ccc(C(=N)c2ccc(N(C)C)cc2)cc1 = > 100 µM
Cn1c(=O)c2c(nc3n2CCC(=O)N3CCCCl)n(C)c1=O = > 100 µM

Task: Would you mind telling me what TGI value was observed for O=C1/C(=C/c2ccc(F)c(F)c2)CN(C(=O)C(Cl)Cl)C/C1=C\c1ccc(F)c(F)c1 ?
Output: 0.381 µM

Task: Form field: reported TGI of COC12C=C/C(=C(/C(=O)OCCSc3ccnn3C)C(=O)CCCCCCCCC3(OC)C=C/C(=C(/C(=O)OCCSc4ccnn4C)C(=O)CCCCCCCC1)O3)O2
Output: 5.64 µM

Task: What value of TGI has been reported for the following compound? Nc1nc(Nc2ccc(Cl)cc2)sc1C(=O)c1c[nH]c2ccccc12
Output: 29 µM

Task: For the compound shown here, COCCOC(C)C(=O)C(O)S(=O)(=O)O (configuration not stated) , give the reported TGI.
Output: > 100 µM

Task: Please report the recorded TGI for CCn1c(-c2ccc(OC)cc2)nc2c1C(=O)c1ccccc1C2=O .
Output: > 100 µM

Task: Quick one: TGI of O=P(O)(O)OCC1OC(n2cnc3c(NCc4ccco4)ncnc32)C(O)C1O (configuration not stated) ?
Output: > 37.2 µM

Task: GET /values?readout=TGI&item= CCCCC(=C=C(C)CO)C1CCCN1C(=O)OC(C)(C)C (configuration not stated)
Output: 31.5 µM

Task: Item under review: COc1cccc(-n2ncc3c(N/N=C/c4ccc(C)cc4)ncnc32)c1 . Reported TGI?
Output: > 25 µM

Task: Recorded TGI for Cc1cn(CCC(N)C(=O)O)c(=O)[nH]c1=O (configuration not stated) , please?
Output: > 100 µM

Task: So what's the measured TGI for this one? CCCN(CCC)CCc1cc(C(C)=O)n(S(=O)(=O)c2ccc(C)cc2)c1
Output: > 100 µM

Task: For the compound shown here, c1ccc(C(c2cccc3c2ccc2ccccc23)C(c2ccccc2)c2cccc3c2ccc2ccccc23)cc1 (configuration not stated) , give the reported TGI.
Output: > 100 µM

====

TGI reference
Test system: SNB-75 CNS
testDetails: NCI tumour cell line growth inhibition, 48 h

Please review the entries below; each comes with its answer.
O=C(Nc1cc(Cl)ccc1Cl)c1cc2cccc(Br)c2oc1=O = > 100 µM
Clc1ccccc1[C@@H]1C[C@@H]2Cc3cc(Br)c4ccccc4c3N1O2 = > 100 µM

Consider now this further compound.
Task: Need TGI of COc1ccc(-c2nsc3c2NC(=O)CC3c2ccc3c(c2)OCCO3)cc1 (stereo not drawn) , thanks.
Output: > 100 µM
